Structures can show the parent of a compound that is named as a salt.
Quick record of Ki values for adenosine A2A receptor (Homo sapiens, UniProt P29274).
Report the figure in nM without appending any unit label.

Compound | Unit Info | Measured
O=C(N[C@@H]1CCNC1)N[C@@H]1CCN(c2nc(NCC(c3ccccc3)c3ccccc3)c3ncn([C@@H]4O[C@H](CO)[C@@H](O)[C@H]4O)c3n2)C1 | nM | 12

# evaluate next
Just so you know, measured Ki for CCn1nnc([C@H]2O[C@@H](n3cnc4c(NCC(c5ccc(O)cc5)c5ccc(O)cc5)nc(N5CC[C@@H](NC(=O)c6ccc(N7CCOCC7)nc6)C5)nc43)[C@H](O)[C@@H]2O)n1 [Example 77, trifluoroacetate] came out at 6
